Target: T1, WT_(ZIP+)/WT_(ZIP−), BICD2_(1–98) heterodimer with C-terminal ZIP+/ZIP− leucine zipper (mouse (cDNA, methods); called human in …, UniProt Q921C5-1 1-98; Q921C5-1 1-98)
T1 chain 1: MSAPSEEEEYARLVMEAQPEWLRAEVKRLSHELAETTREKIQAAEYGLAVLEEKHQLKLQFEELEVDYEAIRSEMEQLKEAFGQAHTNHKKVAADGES
T1 chain 2: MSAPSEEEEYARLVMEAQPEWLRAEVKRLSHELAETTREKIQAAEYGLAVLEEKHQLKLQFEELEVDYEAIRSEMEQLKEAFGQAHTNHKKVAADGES
Experiment: ITC; one-site binding model (rejected, poor fit)
pKd: −log10 of the molar value.
property.name: pKd

binder="NMKAGATSEGVLANFFNSLLSKKTGS [LIC1_(433–458), amphipathic helix of the dynein light intermediate chain-1]" property_name=pKd test_result=5.52
